Test: Immunosuppressive activity in human T cells assessed as inhibition of LFA1-mediated cell proliferation by mixed lymphocyte reaction assay
Assay type: functional, cell-based
Measured IC50 accompanies every entry in the list below.
// note: answer is a bare numeric in nM

                       structure_as_smiles  reading_unit  meas_value
0  CCOc1ccc(-c2cnc3nc(N)nc(OC(C)C)c3n2)cc1            nM       10000

GET /values?readout=IC50&item= "COc1ccc(-c2cnc3nc(N)nc(N4CCN(C(=O)Nc5ccc(F)cc5)CC4)c3n2)cc1OC" 7

Try this molecule next: "COc1ccc(-c2cnc3nc(N)nc(N4CCN(C(=O)NCc5ccc(F)cc5)CC4)c3n2)cc1OC" 37

Moving on to "COc1ccc(-c2cnc3nc(N)nc(N4CCN(C(=O)CCc5ccccc5)CC4)c3n2)cc1OC" 100

"COc1ccc(-c2cnc3nc(N)nc(NC4CCCC4)c3n2)cc1OC" , same question. 800

# repeat for "COc1ccc(-c2cnc3nc(N)nc(N4CCN(C(=O)COc5ccccc5)CC4)c3n2)cc1OC" 4

Note, next up: "COc1ccc(-c2cnc3nc(N)nc(N4CCN(C(=O)Nc5ccc(C#N)cc5)CC4)c3n2)cc1OC" 74

###

Experiment: Immunosuppressive activity in human T cells assessed as inhibition of LFA1-mediated cell proliferation by mixed lymphocyte reaction assay
Assay type: functional, cell-based
OBSERVABLE: IC50

Recorded IC50, per entry:
>>> print(df.to_string())
                        structure_as_smiles  observable  meas_value
0  COc1ccc(-c2cnc3nc(N)nc(N4CCN(Cc5c(Cl)cccc5Cl)CC4)c3n2)cc1OC        IC50     7600 nM
1  COc1ccc(-c2cnc3nc(N)nc(N4CCN(C(=O)Nc5ccccc5)CC4)c3n2)cc1OC        IC50      3.4 nM
2  COc1ccc(-c2cnc3nc(N)nc(OC(C)C)c3n2)cc1OC        IC50      400 nM
3       CCOc1nc(N)nc2ncc(-c3ccc(OC)cc3)nc12        IC50  > 10000 nM
4       CCOc1nc(N)nc2ncc(-c3cccc(OC)c3)nc12        IC50     8300 nM

GET /values?readout=IC50&item= "COc1ccc(-c2cnc3nc(N)nc(N4CCN(C(=O)NCc5ccccc5)CC4)c3n2)cc1OC" 18 nM

// same read-out, input: "COc1ccc(-c2cnc3nc(N)nc(N4CCOCC4)c3n2)cc1OC" 100 nM

Also check "COc1ccc(-c2cnc3nc(N)nc(N4CCN(C(=O)c5ccccc5)CC4)c3n2)cc1OC" 400 nM

Follow-up entry: "COc1ccc(-c2cnc3nc(N)nc(N4CCN(C(=O)Nc5ccc(C)cc5)CC4)c3n2)cc1OC" 0.8 nM

Similarly, "COc1ccc(-c2cnc3nc(N)nc(N4CCC(C)CC4)c3n2)cc1OC" ? 800 nM

###

Assay: Immunosuppressive activity in human T cells assessed as inhibition of LFA1-mediated cell proliferation by mixed lymphocyte reaction assay
Assay type: functional, cell-based
Entries annotated with measured pIC50
// scale note: pIC50 = -log10(conc_M); give the bare number

Guide cases for pIC50, answers given:
>>> print(df.to_string())
                        structure_as_smiles  meas_value
0  COc1ccc(-c2cnc3nc(N)nc(NCc4cccs4)c3n2)cc1OC        5.39
1  COc1ccc(-c2cnc3nc(N)nc(N4CCN(C(=O)Nc5cccc(C)c5)CC4)c3n2)cc1OC        8.15
2  COc1ccc(-c2cnc3nc(N)nc(NC(C)C)c3n2)cc1OC        6.22

Suppose we examine the compound "COc1ccc(-c2cnc3nc(N)nc(N4CCN(c5cc(Cl)cc(Cl)c5)CC4)c3n2)cc1OC" ; what pIC50 value has been reported? 5.47
